Origin of measurements: patent US20260159512A1

# System: hBCAT1 (Homo sapiens, UniProt P54687)
# Sequence (P54687 whole entry): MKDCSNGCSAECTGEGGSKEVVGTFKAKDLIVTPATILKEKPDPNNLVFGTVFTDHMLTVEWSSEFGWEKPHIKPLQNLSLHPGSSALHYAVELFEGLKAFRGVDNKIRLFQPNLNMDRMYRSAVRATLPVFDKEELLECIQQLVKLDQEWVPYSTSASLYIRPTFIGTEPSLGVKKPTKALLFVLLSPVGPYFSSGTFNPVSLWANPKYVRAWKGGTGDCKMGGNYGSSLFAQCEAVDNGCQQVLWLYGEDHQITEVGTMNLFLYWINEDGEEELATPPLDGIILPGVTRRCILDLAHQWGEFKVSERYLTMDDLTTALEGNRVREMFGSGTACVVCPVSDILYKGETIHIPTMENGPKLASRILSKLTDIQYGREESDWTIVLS
# Test Method Notes: BCAT1 in vitro enzyme inhibition assay (resazurin/diaphorase-coupled fluorescence)
# Assay type: biochemical
# Run Parameters: average where tested multiple times
# IC50 per entry

The examples below pair each entry with its known result.
                                   compound                                 system           result
0  O=C(N[C@H]1CCC[C@@H](n2c(-c3c(O)cccc3F)nc3cnc(-c4nc[nH]n4)cc32)C1)c1ccc(Cl)s1  hBCAT1 (Homo sapiens, UniProt P54687)         < 500 nM
1  O=C(N[C@H]1CCC[C@@H](n2c(-c3ccccc3F)nc3cnc(-n4ccnn4)cc32)C1)c1ncc(C(F)F)s1  hBCAT1 (Homo sapiens, UniProt P54687)  1000 to 5000 nM
2  CC(O)CN1CC(NC(=O)c2ncc(C(F)F)s2)CC(n2c(-c3ncccc3F)nc3cnc(-n4nccn4)cc32)C1 (stereo not shown)  hBCAT1 (Homo sapiens, UniProt P54687)        > 5000 nM
3  CC(C)Cc1nc2cnc(-c3ccccn3)cc2n1[C@@H]1CCC[C@H](NC(=O)c2ncc(Cl)s2)[C@H]1O  hBCAT1 (Homo sapiens, UniProt P54687)         < 500 nM

Write down IC50 measured for item O=C(N[C@H]1C[C@H](O)C[C@@H](n2c(-c3ccccc3F)nc3cnc(-n4nccn4)cc32)C1)c1ncc(C(F)F)s1 (single isomer, unassigned)
< 500 nM

Fill in reported IC50 for this entry: Cn1cc(-c2cc3nc(-c4ccccn4)n(C4CCCC(NC(=O)c5ccc(Br)s5)C4)c3cn2)cn1 (stereo not shown)
> 5000 nM

Consider the compound CC(C)Cc1nc2cnc(-c3ncon3)cc2n1[C@@H]1CCC[C@H](NC(=O)c2ncc(Cl)s2)C1 and give its recorded IC50.
500 to 1000 nM

----------
# System: BCAT2 (Homo sapiens)
# Sequence (O15382 28-392): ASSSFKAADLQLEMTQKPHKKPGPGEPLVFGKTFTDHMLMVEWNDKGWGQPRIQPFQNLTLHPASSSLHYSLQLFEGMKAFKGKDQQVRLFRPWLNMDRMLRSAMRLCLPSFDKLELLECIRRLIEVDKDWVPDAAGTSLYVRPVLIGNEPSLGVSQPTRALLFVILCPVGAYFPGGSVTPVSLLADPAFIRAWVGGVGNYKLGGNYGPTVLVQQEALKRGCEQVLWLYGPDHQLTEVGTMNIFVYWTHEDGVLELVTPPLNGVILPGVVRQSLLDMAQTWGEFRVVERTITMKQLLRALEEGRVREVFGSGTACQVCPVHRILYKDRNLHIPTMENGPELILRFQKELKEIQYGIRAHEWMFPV
# Test Method Notes: BCAT2 in vitro enzyme inhibition assay (resazurin/diaphorase-coupled fluorescence)
# Type: biochemical
# Run Parameters: average where tested multiple times
Assay Endpoint: IC50

>>> df
                                   compound    result
0  O=C(N[C@H]1CCC[C@@H](n2c(C3CCCOC3)nc3cnc(-c4nc[nH]n4)cc32)C1)c1ncc(Cl)s1 (single isomer, unassigned) [Example 102]  ≤ 100 nM

Give reported IC50 value for O=C(N[C@H]1CCC[C@@H](n2c(-c3ccccn3)nc3cc(-c4cnco4)ncc32)C1)c1ccc(Br)s1
500 to 1000 nM

Tell me measured IC50 for C#Cc1cnc(C(=O)N[C@H]2CCC[C@@H](n3c(-c4ccccc4F)nc4cnc(-c5ncco5)cc43)C2)s1 please.
≤ 100 nM

Please indicate IC50 recorded for Cc1nc(-c2cc3c(cn2)nc(CC(C)C)n3[C@@H]2CCC[C@H](NC(=O)c3ncc(Cl)s3)C2)n[nH]1
≤ 100 nM

Dear colleague, please send me the reported IC50 for O=C(N[C@H]1C[C@H](O)C[C@@H](n2c(-c3ccccc3F)nc3cnc(-n4nccn4)cc32)C1)c1ncc(Cl)s1 (single isomer, unassigned) when you can.
≤ 100 nM

Read the entry O=C(N[C@H]1CCC[C@@H](n2c(-c3ccccc3F)nc3cnc(-c4ccccc4)cc32)C1)c1ncc(Cl)s1 and write its reported IC50.
≤ 100 nM

Provide measured IC50 value, entry: CC(=O)N1CC(NC(=O)c2ncc(C(F)F)s2)CC(n2c(-c3ncccc3F)nc3cnc(-n4ccnn4)cc32)C1 (centres unmarked)
≤ 100 nM

Provide IC50 value for the following compound: CC(C)Cc1nc2cnc(N3CCC[C@H]3C(N)=O)cc2n1[C@@H]1CCC[C@H](NC(=O)c2ncc(Cl)s2)C1
> 1000 nM

Tell me measured IC50 for CNC(=O)c1cc2nc(-c3ccccn3)n(C3CC(NC(=O)c4ccc(Br)s4)CN(C)C3)c2cc1OC (centres unmarked) please.
≤ 100 nM

Please indicate IC50 recorded for CC(C)Cc1nc2cnc(-n3cc(C(C)O)nn3)cc2n1[C@@H]1CCC[C@H](NC(=O)c2ncc(Cl)s2)C1 (some centres unmarked)
100 to 500 nM

Give reported IC50 value for COc1cccc(F)c1-c1nc2cnc(-c3nc[nH]n3)cc2n1[C@@H]1CCCC[C@H](NC(=O)c2ccc(Cl)s2)[C@H]1O
≤ 100 nM

----------
IC50 values by entry
# System: BCAT2 (Homo sapiens)
# Test Method Notes: BCAT2 in vitro enzyme inhibition assay (resazurin/diaphorase-coupled fluorescence)
# Type: biochemical
# Run Parameters: average where tested multiple times

                                   molecule                system          result
0  O=C(N[C@H]1CCC[C@@H](n2c(-c3ncccc3F)nc3cnc(-c4cc[nH]n4)cc32)C1)c1ncc(C(F)F)s1  BCAT2 (Homo sapiens)        ≤ 100 nM
1  CC(C)Cc1nc2cnc(-c3cccc(F)n3)cc2n1[C@H]1C[C@H](O)C[C@@H](NC(=O)c2ncc(Cl)s2)C1 (stereo in doubt)  BCAT2 (Homo sapiens)        ≤ 100 nM
2  O=C(N[C@@H]1C[C@@H](O)C[C@H](n2c(-c3ccccc3F)nc3cnccc32)C1)c1ncc(Cl)s1  BCAT2 (Homo sapiens)       > 1000 nM
3  CN(C)Cc1ccccc1-c1nc2cnc(-c3nc[nH]n3)cc2n1[C@@H]1CCC[C@H](NC(=O)c2ncc(Cl)s2)C1  BCAT2 (Homo sapiens)  500 to 1000 nM
4  CC(C)(O)c1cnn(-c2cc3c(cn2)nc(-c2ccccn2)n3[C@@H]2CCC[C@H](NC(=O)c3ncc(C(F)F)s3)C2)n1  BCAT2 (Homo sapiens)        ≤ 100 nM

Now for another entry.
State IC50 (BCAT2 (Homo sapiens)) of CC(C)Cc1nc2cnc(-c3nc[nH]n3)cc2n1[C@@H]1CCC[C@H](NC(=O)c2ncc(C#N)s2)C1 .
≤ 100 nM

----------
# System: BCAT2 (Homo sapiens)
# Sequence (O15382 28-392): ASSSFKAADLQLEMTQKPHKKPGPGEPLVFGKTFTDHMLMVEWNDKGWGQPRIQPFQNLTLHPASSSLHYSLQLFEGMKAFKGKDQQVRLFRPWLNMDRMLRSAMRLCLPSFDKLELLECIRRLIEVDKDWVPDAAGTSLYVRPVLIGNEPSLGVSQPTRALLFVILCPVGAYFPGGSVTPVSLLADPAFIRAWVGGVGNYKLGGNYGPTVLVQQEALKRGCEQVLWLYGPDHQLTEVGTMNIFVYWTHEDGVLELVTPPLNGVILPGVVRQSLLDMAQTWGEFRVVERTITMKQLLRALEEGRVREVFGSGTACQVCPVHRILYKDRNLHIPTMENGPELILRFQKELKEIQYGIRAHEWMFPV
# Test Method Notes: BCAT2 in vitro cell inhibition using engineered A549 cells (KMV cell assay, 13C6-KMV by LC-MS/MS)
# Format: cell-based
# Set-up: The result was an engineered A549 cell line that expressed endogenous BCAT2; endogenous in cells; host or cells: A549 cells with MUT and BCAT1 knocked out by CRISPR/CAS9
# Run Parameters: average where tested multiple times
Assay Endpoint: IC50

Known IC50 results, listed for orientation:
>>> df
                                   compound  assay_endpoint         result
0  CC(C)Cc1nc2cnc(-c3ccccn3)cc2n1[C@H]1C[C@@H](NC(=O)c2ncc(Cl)s2)CN(C)C1            IC50      > 1000 nM
1  O=C(N[C@H]1CCC[C@@H](n2c(-c3ncccc3F)nc3cnc(-c4nc[nH]n4)cc32)C1)c1ccc(Cl)s1            IC50       ≤ 100 nM
2  CC1(O)[C@@H](NC(=O)c2ncc(Cl)s2)CCC[C@H]1n1c(-c2ccccc2F)nc2cnc(-c3nc[nH]n3)cc21 (single isomer, unassigned)            IC50  100 to 500 nM

Okay, next one:
Write down the reported IC50 (system: BCAT2 (Homo sapiens)) of CNC(=O)c1cc2nc(-c3ccccc3F)n(C3CC(NC(=O)c4ccc(Br)s4)CN(C)C3)c2cc1OC (stereo not shown)
100 to 500 nM
